Target: Melanocortin receptor 4 (Mus musculus, UniProt P56450)
Sequence (P56450 whole entry): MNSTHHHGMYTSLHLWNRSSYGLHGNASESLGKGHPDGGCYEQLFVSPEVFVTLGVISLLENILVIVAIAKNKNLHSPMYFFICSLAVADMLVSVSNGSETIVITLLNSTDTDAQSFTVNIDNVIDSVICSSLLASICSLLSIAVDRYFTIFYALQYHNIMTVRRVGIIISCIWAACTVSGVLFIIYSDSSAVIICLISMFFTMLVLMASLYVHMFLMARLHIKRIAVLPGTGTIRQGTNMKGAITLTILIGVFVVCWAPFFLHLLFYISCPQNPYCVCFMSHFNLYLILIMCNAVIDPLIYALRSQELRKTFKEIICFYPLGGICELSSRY
Experiment Summary: In vitro agonist potency for Mouse Melanocortin 4 receptor
Reported EC50 values are given for each entry in this list.
Field format: number, assumed nM, no unit text.

Worked cases, EC50 given:
INSERT INTO results (test_smiles, uom, measured) VALUES
  ('CCCCCCCCCCCCC(=O)N[C@@H](Cc1cnc[nH]1)C(=O)N[C@H](Cc1ccccc1)C(=O)N[C@@H](CCCNC(=N)N)C(=O)N[C@@H](Cc1c[nH]c2ccccc12)C(N)=O', 'nM', 20.6),
  ('CCCCCCCCCCCCCCCCC(=O)N[C@@H](Cc1c[nH]cn1)C(=O)N[C@H](Cc1ccccc1)C(=O)N[C@@H](CCCN=C(N)N)C(=O)N[C@@H](Cc1c[nH]c2ccccc12)C(N)=O', 'nM', 21.4),
  ('CCCCCCCCCCC(=O)N[C@@H](Cc1cnc[nH]1)C(=O)N[C@H](Cc1ccccc1)C(=O)N[C@@H](CCCNC(=N)N)C(=O)N[C@@H](Cc1c[nH]c2ccccc12)C(N)=O', 'nM', 19),
  ('CCCCCCCCC(=O)N[C@@H](Cc1cnc[nH]1)C(=O)N[C@H](Cc1ccccc1)C(=O)N[C@@H](CCCNC(=N)N)C(=O)N[C@@H](Cc1c[nH]c2ccccc12)C(N)=O', 'nM', 1.14),
  ('N=C(N)NCCC[C@H](NC(=O)[C@@H](Cc1ccccc1)NC(=O)[C@@H](N)Cc1cnc[nH]1)C(=O)N[C@@H](Cc1c[nH]c2ccccc12)C(N)=O', 'nM', 18.5),
  ('CC(=O)N[C@@H](Cc1cnc[nH]1)C(=O)N[C@H](Cc1ccccc1)C(=O)N[C@@H](CCCN=C(N)N)C(=O)N[C@@H](Cc1c[nH]c2ccccc12)C(N)=O', 'nM', 10.7),
  ('CCCCCCCC(=O)N[C@@H](Cc1c[nH]cn1)C(=O)N[C@H](Cc1ccccc1)C(=O)N[C@@H](CCCN=C(N)N)C(=O)N[C@@H](Cc1c[nH]c2ccccc12)C(N)=O', 'nM', 2.52),
  ('CCCCCCCCCCCCCC(=O)N[C@@H](Cc1c[nH]cn1)C(=O)N[C@H](Cc1ccccc1)C(=O)N[C@@H](CCCN=C(N)N)C(=O)N[C@@H](Cc1c[nH]c2ccccc12)C(N)=O', 'nM', 10.5),
  ('CCCCCCCCCCCCCCCC(=O)N[C@@H](Cc1cnc[nH]1)C(=O)N[C@H](Cc1ccccc1)C(=O)N[C@@H](CCCNC(=N)N)C(=O)N[C@@H](Cc1c[nH]c2ccccc12)C(N)=O', 'nM', 26.6),
  ('CCCCCCCCCC(=O)N[C@@H](Cc1c[nH]cn1)C(=O)N[C@H](Cc1ccccc1)C(=O)N[C@@H](CCCN=C(N)N)C(=O)N[C@@H](Cc1c[nH]c2ccccc12)C(N)=O', 'nM', 14.4);

Next item in the queue.
Q: Return reported EC50. Input compound: CCCCCCCCCCCCCCC(=O)N[C@@H](Cc1c[nH]cn1)C(=O)N[C@H](Cc1ccccc1)C(=O)N[C@@H](CCCN=C(N)N)C(=O)N[C@@H](Cc1c[nH]c2ccccc12)C(N)=O
A: 13.2

----------
Target: Melanocyte-stimulating hormone receptor (Mus musculus)
Sequence (Q01727 whole entry): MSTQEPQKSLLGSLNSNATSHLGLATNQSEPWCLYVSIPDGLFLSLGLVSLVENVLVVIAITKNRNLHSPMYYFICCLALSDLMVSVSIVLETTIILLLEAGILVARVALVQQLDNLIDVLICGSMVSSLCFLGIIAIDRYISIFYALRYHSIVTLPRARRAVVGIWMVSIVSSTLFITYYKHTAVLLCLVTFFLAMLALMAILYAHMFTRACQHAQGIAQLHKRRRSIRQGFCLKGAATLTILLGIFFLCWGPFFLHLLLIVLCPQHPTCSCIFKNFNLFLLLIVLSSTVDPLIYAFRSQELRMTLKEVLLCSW
Experiment Summary: In vitro agonist potency for Mouse Melanocortin 1 receptor
Assign labels as follows, please: 1 (yes) for EC50 below 700 pM; 0 (no) for EC50 equal to or exceeding 700 pM.

Look over these answered cases.
INSERT INTO results (test_smiles, assigned_label) VALUES
  ('CCCCCCCCCCCCCCCC(=O)N[C@@H](Cc1cnc[nH]1)C(=O)N[C@H](Cc1ccccc1)C(=O)N[C@@H](CCCNC(=N)N)C(=O)N[C@@H](Cc1c[nH]c2ccccc12)C(N)=O', '0 (no)'),
  ('N=C(N)NCCC[C@H](NC(=O)[C@@H](Cc1ccccc1)NC(=O)[C@@H](N)Cc1cnc[nH]1)C(=O)N[C@@H](Cc1c[nH]c2ccccc12)C(N)=O', '0 (no)'),
  ('CCCCCCCCCCCCCC(=O)N[C@@H](Cc1c[nH]cn1)C(=O)N[C@H](Cc1ccccc1)C(=O)N[C@@H](CCCN=C(N)N)C(=O)N[C@@H](Cc1c[nH]c2ccccc12)C(N)=O', '1 (yes)'),
  ('CCCCCCCCC(=O)N[C@@H](Cc1cnc[nH]1)C(=O)N[C@H](Cc1ccccc1)C(=O)N[C@@H](CCCNC(=N)N)C(=O)N[C@@H](Cc1c[nH]c2ccccc12)C(N)=O', '1 (yes)'),
  ('CCCCCCCC(=O)N[C@@H](Cc1c[nH]cn1)C(=O)N[C@H](Cc1ccccc1)C(=O)N[C@@H](CCCN=C(N)N)C(=O)N[C@@H](Cc1c[nH]c2ccccc12)C(N)=O', '1 (yes)');

Q: Determine whether this compound shows EC50 lower than 700 pM (ties excluded): CCCCCCCCCCCCCCC(=O)N[C@@H](Cc1c[nH]cn1)C(=O)N[C@H](Cc1ccccc1)C(=O)N[C@@H](CCCN=C(N)N)C(=O)N[C@@H](Cc1c[nH]c2ccccc12)C(N)=O
A: 0 (no)

Q: Determine whether this compound shows EC50 lower than 700 pM (ties excluded): CCCCCCCCCCCCC(=O)N[C@@H](Cc1cnc[nH]1)C(=O)N[C@H](Cc1ccccc1)C(=O)N[C@@H](CCCNC(=N)N)C(=O)N[C@@H](Cc1c[nH]c2ccccc12)C(N)=O
A: 0 (no)

Q: Determine whether this compound shows EC50 lower than 700 pM (ties excluded): CCCCCCCCCCC(=O)N[C@@H](Cc1cnc[nH]1)C(=O)N[C@H](Cc1ccccc1)C(=O)N[C@@H](CCCNC(=N)N)C(=O)N[C@@H](Cc1c[nH]c2ccccc12)C(N)=O
A: 0 (no)

Q: Determine whether this compound shows EC50 lower than 700 pM (ties excluded): CCCCCCCCCC(=O)N[C@@H](Cc1c[nH]cn1)C(=O)N[C@H](Cc1ccccc1)C(=O)N[C@@H](CCCN=C(N)N)C(=O)N[C@@H](Cc1c[nH]c2ccccc12)C(N)=O
A: 0 (no)
